B1: TPR 5TU (parent)
chain: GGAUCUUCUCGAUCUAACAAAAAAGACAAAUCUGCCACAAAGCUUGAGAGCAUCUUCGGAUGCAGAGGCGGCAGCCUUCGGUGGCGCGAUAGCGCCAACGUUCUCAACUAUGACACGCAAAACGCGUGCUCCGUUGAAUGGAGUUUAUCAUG

Variants of: B1
Experiment: polymerase ribozyme fitness, log enrichment relative to wild type (log ratio); higher = more active; in vitro selection for triplet polymerase activity
Variants at the floor of the assay were thinned out.
Record 1.0 whenever polymerase ribozyme fitness (log ratio) is at -3 or higher; record 0.0 when lower.

Prompt: Please indicate if the recorded polymerase ribozyme fitness (log ratio) for A19C G70C C103G meets or exceeds -3.
Response: 0.0

Prompt: Please indicate if the recorded polymerase ribozyme fitness (log ratio) for A22C U55G A60G U101A C118G meets or exceeds -3.
Response: 1.0

Prompt: Please indicate if the recorded polymerase ribozyme fitness (log ratio) for C10G U53C C93U A107G meets or exceeds -3.
Response: 0.0

Prompt: Please indicate if the recorded polymerase ribozyme fitness (log ratio) for C10G C18G G42U A49C G50A G74A G133C G143A meets or exceeds -3.
Response: 0.0

Prompt: Please indicate if the recorded polymerase ribozyme fitness (log ratio) for A3U G81C meets or exceeds -3.
Response: 1.0

Prompt: Please indicate if the recorded polymerase ribozyme fitness (log ratio) for C32A C51A C54A G92A A97U U146C meets or exceeds -3.
Response: 0.0

Prompt: Please indicate if the recorded polymerase ribozyme fitness (log ratio) for C14G C85U C96U A113C A122U G143A meets or exceeds -3.
Response: 0.0

Prompt: Please indicate if the recorded polymerase ribozyme fitness (log ratio) for C10G U56A C57U C69U C95A C99U C108U A121U A147G meets or exceeds -3.
Response: 0.0

Prompt: Please indicate if the recorded polymerase ribozyme fitness (log ratio) for U90G G100A C116U meets or exceeds -3.
Response: 0.0

Prompt: Please indicate if the recorded polymerase ribozyme fitness (log ratio) for A49C U53A C54A C87U U102C meets or exceeds -3.
Response: 0.0

Prompt: Please indicate if the recorded polymerase ribozyme fitness (log ratio) for A73U U102G meets or exceeds -3.
Response: 0.0

Prompt: Please indicate if the recorded polymerase ribozyme fitness (log ratio) for A21C U53A C85A meets or exceeds -3.
Response: 1.0

Prompt: Please indicate if the recorded polymerase ribozyme fitness (log ratio) for C32A C96U meets or exceeds -3.
Response: 0.0

Prompt: Please indicate if the recorded polymerase ribozyme fitness (log ratio) for A73U C99A C103G C114U C123G meets or exceeds -3.
Response: 0.0

Prompt: Please indicate if the recorded polymerase ribozyme fitness (log ratio) for A73G A106C U111A U144A meets or exceeds -3.
Response: 0.0

Prompt: Please indicate if the recorded polymerase ribozyme fitness (log ratio) for C18G A24U U55A C69U G74A meets or exceeds -3.
Response: 1.0

Prompt: Please indicate if the recorded polymerase ribozyme fitness (log ratio) for G68A C85U A97U A107U G128A C132U meets or exceeds -3.
Response: 0.0

Prompt: Please indicate if the recorded polymerase ribozyme fitness (log ratio) for U4G A23C C79A G92C G100A meets or exceeds -3.
Response: 0.0

Prompt: Please indicate if the recorded polymerase ribozyme fitness (log ratio) for A47C C54U U55A U101C meets or exceeds -3.
Response: 1.0

Prompt: Please indicate if the recorded polymerase ribozyme fitness (log ratio) for C32G C105U meets or exceeds -3.
Response: 0.0

Prompt: Please indicate if the recorded polymerase ribozyme fitness (log ratio) for A47C C85G U134G meets or exceeds -3.
Response: 0.0

Prompt: Please indicate if the recorded polymerase ribozyme fitness (log ratio) for G48C U53G meets or exceeds -3.
Response: 0.0

Prompt: Please indicate if the recorded polymerase ribozyme fitness (log ratio) for C35U G46C C72U G74U C96U A107G meets or exceeds -3.
Response: 0.0

Prompt: Please indicate if the recorded polymerase ribozyme fitness (log ratio) for U6A A12U meets or exceeds -3.
Response: 1.0

Prompt: Please indicate if the recorded polymerase ribozyme fitness (log ratio) for C5G A28G A30C C36U A47U C57U C85A A91U C118U A120G C125G A142G meets or exceeds -3.
Response: 0.0

Prompt: Please indicate if the recorded polymerase ribozyme fitness (log ratio) for G58C C96U A98G A121G meets or exceeds -3.
Response: 1.0

Prompt: Please indicate if the recorded polymerase ribozyme fitness (log ratio) for G11U A29C A89C C125U meets or exceeds -3.
Response: 0.0

Prompt: Please indicate if the recorded polymerase ribozyme fitness (log ratio) for G50C G81A G86U C87A G136U meets or exceeds -3.
Response: 0.0

Prompt: Please indicate if the recorded polymerase ribozyme fitness (log ratio) for C87U G100U C114U meets or exceeds -3.
Response: 0.0

Prompt: Please indicate if the recorded polymerase ribozyme fitness (log ratio) for G126U meets or exceeds -3.
Response: 1.0

Prompt: Please indicate if the recorded polymerase ribozyme fitness (log ratio) for C69U C118U meets or exceeds -3.
Response: 1.0

Prompt: Please indicate if the recorded polymerase ribozyme fitness (log ratio) for A40G A91G A115G C116G A142C meets or exceeds -3.
Response: 0.0

Prompt: Please indicate if the recorded polymerase ribozyme fitness (log ratio) for A17G C63A C118G A142U meets or exceeds -3.
Response: 1.0

Prompt: Please indicate if the recorded polymerase ribozyme fitness (log ratio) for G11U U56A C79G C87G C96U A142G meets or exceeds -3.
Response: 0.0

Prompt: Please indicate if the recorded polymerase ribozyme fitness (log ratio) for A52C U90G meets or exceeds -3.
Response: 0.0

Prompt: Please indicate if the recorded polymerase ribozyme fitness (log ratio) for U6C U31C C57A C96G meets or exceeds -3.
Response: 1.0

Prompt: Please indicate if the recorded polymerase ribozyme fitness (log ratio) for C57U C79G meets or exceeds -3.
Response: 0.0

Prompt: Please indicate if the recorded polymerase ribozyme fitness (log ratio) for C85U A89U C105G meets or exceeds -3.
Response: 1.0

Prompt: Please indicate if the recorded polymerase ribozyme fitness (log ratio) for C57A G59C G84U A107G A115U A137G C149U meets or exceeds -3.
Response: 0.0

Prompt: Please indicate if the recorded polymerase ribozyme fitness (log ratio) for A16G C32U C72A C76U C85G A107U meets or exceeds -3.
Response: 0.0

Prompt: Please indicate if the recorded polymerase ribozyme fitness (log ratio) for G80C G94A meets or exceeds -3.
Response: 0.0

Prompt: Please indicate if the recorded polymerase ribozyme fitness (log ratio) for C51U G88C meets or exceeds -3.
Response: 0.0

Prompt: Please indicate if the recorded polymerase ribozyme fitness (log ratio) for C76A U104A C125A A142C U144A meets or exceeds -3.
Response: 0.0

Prompt: Please indicate if the recorded polymerase ribozyme fitness (log ratio) for A17G C85A C129A meets or exceeds -3.
Response: 1.0

Prompt: Please indicate if the recorded polymerase ribozyme fitness (log ratio) for A41G U53C U55A U82G U127G meets or exceeds -3.
Response: 0.0

Prompt: Please indicate if the recorded polymerase ribozyme fitness (log ratio) for U9C G50C C75G C85G C125A meets or exceeds -3.
Response: 0.0

Prompt: Please indicate if the recorded polymerase ribozyme fitness (log ratio) for C57U G59A G83C G84U C85A U101G G126A A142C meets or exceeds -3.
Response: 0.0

Prompt: Please indicate if the recorded polymerase ribozyme fitness (log ratio) for G74A C85U meets or exceeds -3.
Response: 0.0

Prompt: Please indicate if the recorded polymerase ribozyme fitness (log ratio) for C51G C87A C93G C105A A113U meets or exceeds -3.
Response: 0.0

Prompt: Please indicate if the recorded polymerase ribozyme fitness (log ratio) for C38U G50A A73U G126U meets or exceeds -3.
Response: 0.0

Prompt: Please indicate if the recorded polymerase ribozyme fitness (log ratio) for A19U C51G G59C C75G G88A A91U C96U G141C meets or exceeds -3.
Response: 0.0

Prompt: Please indicate if the recorded polymerase ribozyme fitness (log ratio) for A23G C79G meets or exceeds -3.
Response: 0.0

Prompt: Please indicate if the recorded polymerase ribozyme fitness (log ratio) for C54A A91U meets or exceeds -3.
Response: 0.0

Prompt: Please indicate if the recorded polymerase ribozyme fitness (log ratio) for C5G G50A C87U C103G U111C C132U meets or exceeds -3.
Response: 0.0

Prompt: Please indicate if the recorded polymerase ribozyme fitness (log ratio) for U6A G11U A23C G25A C36A G50C C125U meets or exceeds -3.
Response: 0.0

Prompt: Please indicate if the recorded polymerase ribozyme fitness (log ratio) for C27G A37G C72A C105A meets or exceeds -3.
Response: 0.0

Prompt: Please indicate if the recorded polymerase ribozyme fitness (log ratio) for U9G A24U U33C G143C A147C meets or exceeds -3.
Response: 0.0

Prompt: Please indicate if the recorded polymerase ribozyme fitness (log ratio) for A20G C35G C51A C85U C99U C129A U148A meets or exceeds -3.
Response: 0.0

Prompt: Please indicate if the recorded polymerase ribozyme fitness (log ratio) for U33C A41U C57U G70C G83A A119C meets or exceeds -3.
Response: 0.0

Prompt: Please indicate if the recorded polymerase ribozyme fitness (log ratio) for U7A A26C U31A G34C G70U U78G G117A C118U A119C meets or exceeds -3.
Response: 0.0

Prompt: Please indicate if the recorded polymerase ribozyme fitness (log ratio) for A3U A12G C87G meets or exceeds -3.
Response: 0.0

Prompt: Please indicate if the recorded polymerase ribozyme fitness (log ratio) for A37C G80C G92A C129A meets or exceeds -3.
Response: 0.0

Prompt: Please indicate if the recorded polymerase ribozyme fitness (log ratio) for G46A U53A G59A A66C U90C A91U C108G G133C meets or exceeds -3.
Response: 0.0

Prompt: Please indicate if the recorded polymerase ribozyme fitness (log ratio) for A40C C96G A119G meets or exceeds -3.
Response: 1.0

Prompt: Please indicate if the recorded polymerase ribozyme fitness (log ratio) for C51U C76U C96U A137U U144C U151A meets or exceeds -3.
Response: 0.0

Prompt: Please indicate if the recorded polymerase ribozyme fitness (log ratio) for A19C C57U G86A meets or exceeds -3.
Response: 1.0

Prompt: Please indicate if the recorded polymerase ribozyme fitness (log ratio) for C8G C14G C18G C96U A137U meets or exceeds -3.
Response: 0.0

Prompt: Please indicate if the recorded polymerase ribozyme fitness (log ratio) for A39C G84A meets or exceeds -3.
Response: 0.0

Prompt: Please indicate if the recorded polymerase ribozyme fitness (log ratio) for U4G C93U meets or exceeds -3.
Response: 1.0

Prompt: Please indicate if the recorded polymerase ribozyme fitness (log ratio) for C54A U78G U101G A107G C118A U130A meets or exceeds -3.
Response: 0.0

Prompt: Please indicate if the recorded polymerase ribozyme fitness (log ratio) for U55G C72U G136C meets or exceeds -3.
Response: 0.0

Prompt: Please indicate if the recorded polymerase ribozyme fitness (log ratio) for C35A G70A A89G G92A meets or exceeds -3.
Response: 0.0

Prompt: Please indicate if the recorded polymerase ribozyme fitness (log ratio) for C54U C85G meets or exceeds -3.
Response: 1.0

Prompt: Please indicate if the recorded polymerase ribozyme fitness (log ratio) for A28G A107G U144C meets or exceeds -3.
Response: 0.0

Prompt: Please indicate if the recorded polymerase ribozyme fitness (log ratio) for U15A G50U C95G C132G meets or exceeds -3.
Response: 0.0

Prompt: Please indicate if the recorded polymerase ribozyme fitness (log ratio) for A37U U135A meets or exceeds -3.
Response: 1.0

Prompt: Please indicate if the recorded polymerase ribozyme fitness (log ratio) for A19G A30G G42C G50A C85U U109A A120G meets or exceeds -3.
Response: 0.0

Prompt: Please indicate if the recorded polymerase ribozyme fitness (log ratio) for A12U A20G U56A C75G A121G meets or exceeds -3.
Response: 0.0

Prompt: Please indicate if the recorded polymerase ribozyme fitness (log ratio) for G50U G83U C85G meets or exceeds -3.
Response: 0.0

Prompt: Please indicate if the recorded polymerase ribozyme fitness (log ratio) for G46A G58A G83C meets or exceeds -3.
Response: 1.0

Prompt: Please indicate if the recorded polymerase ribozyme fitness (log ratio) for C123G meets or exceeds -3.
Response: 1.0

Prompt: Please indicate if the recorded polymerase ribozyme fitness (log ratio) for C87G G112U meets or exceeds -3.
Response: 0.0

Prompt: Please indicate if the recorded polymerase ribozyme fitness (log ratio) for A49C C51U A52C G62A G70A G84A A106G A115G meets or exceeds -3.
Response: 0.0

Prompt: Please indicate if the recorded polymerase ribozyme fitness (log ratio) for U7A A26U C27U A41U U55G C93U meets or exceeds -3.
Response: 0.0

Prompt: Please indicate if the recorded polymerase ribozyme fitness (log ratio) for C51U A52G C87U A137C meets or exceeds -3.
Response: 0.0

Prompt: Please indicate if the recorded polymerase ribozyme fitness (log ratio) for U44A C85A G92A A107U G128U meets or exceeds -3.
Response: 0.0

Prompt: Please indicate if the recorded polymerase ribozyme fitness (log ratio) for C75A U135C meets or exceeds -3.
Response: 0.0

Prompt: Please indicate if the recorded polymerase ribozyme fitness (log ratio) for G48C G92U meets or exceeds -3.
Response: 1.0

Prompt: Please indicate if the recorded polymerase ribozyme fitness (log ratio) for A24U A28C G59C G86C A122U G133C meets or exceeds -3.
Response: 0.0
